test system: UO-31 renal; experiment: NCI-60 one-dose screen, 48 h (100 = growth as untreated, 0 = no growth, -100 = all killed); settings: 10 µM unless noted
The panel holds about 83,000 compounds, 20% with a hit somewhere; the sample as a whole holds those more often.
Binary call on growth with cut-off 70%: strictly below means True, and equality or higher means False.

Q: Field: below-cutoff. Rule: recorded growth strictly less than 70%. Subject: CCOc1nc(-c2ccccc2)cc2c(O)c(C(=O)N/N=C/c3ccccc3)[nH]c(=O)c12
A: False

Q: Consider the compound CC1=C2[C@@H](CC1)[C@]1(C)O[C@@](C(C)C)(C[C@H]1OC(=O)[C@H](C)O)[C@H]2OC(=O)/C=C/c1ccccc1 . Is its growth strictly less than 70%?
A: True

Q: Confirm or reject: growth of CC1CCN(CCOc2ccc(CNc3ccc4nc(CCC5CCCCC5)[nH]c4c3)cc2)CC1 lies strictly below 70%
A: True

Q: A record lists Cc1cc(N2CCCCC2)cc(C)c1-c1csc(NC(=O)c2ccncc2)n1 . Is its growth below 70%?
A: True

Q: Bench note: check whether Cc1ccc(NC(=O)c2sc3nc(C)c(Br)c(C)c3c2N)cc1 shows growth below 70%
A: True

Q: Report whether reported growth is lower than 70% (strictly) for Cc1ccc(C(=O)c2ccc(CC(=O)N/N=C/c3ccccc3O)n2C)cc1
A: True

Q: is_below(growth, 70%) for CC(C)COc1nc2c(c(=O)n(C)c(=O)n2C)n1C ?
A: False

Q: Please indicate whether the reported growth of O=c1c2cccc3c(N4CCCC4)ccc(c32)c2nc3ccccc3n12 is strictly below 70%.
A: True

Q: Lab log: compare recorded growth with 70%; is it strictly lower for [O-]/[N+](=C\c1ccc(-n2cc(Cc3ccccc3Cc3cn(-c4ccc(/C=[N+](/[O-])c5ccccc5)cc4)nn3)nn2)cc1)c1ccccc1 ?
A: False

Q: Given the entry Clc1cc(Cl)c(Cl)c(-c2nnc(SCc3ccncc3Br)o2)c1 , would its reported growth be below 70%?
A: True

Q: Please check: growth for NC(=O)c1ccc(-c2c3ccccc3cc3c2ccc2ccccc23)cc1 , strictly under 70% or not?
A: True

Q: Report whether reported growth is lower than 70% (strictly) for CSc1nc2ccccc2cc1/C=C1/C=C(c2ccccc2)NC1=O
A: False

Q: Criterion: growth strictly below 70%. Is it met by COC(=O)c1cc(N=C2NC(=O)/C(=C/C=C/c3ccccc3)S2)ccc1O ?
A: True

Q: Does the reported growth of NC(=O)C(=O)c1ccccc1NC=O stay below 70%?
A: True

Q: Could you please tell me whether growth recorded for C=C1C(=O)O[C@H]2[C@H]1CC/C(COC(=O)/C=C\C(=O)NCc1ccc(Cn3c(=O)sn(CCI)c3=O)cc1)=C\CC[C@@]1(C)O[C@@H]21 is less than 70%?
A: True

Q: is_below(growth, 70%) for CCOc1ccc(NC(=O)CSc2oc(-c3ccccc3)nc2S(=O)(=O)c2ccc(C)cc2)cc1 ?
A: False

Q: State whether 70% exceeds growth recorded for CN(C)c1ccc(-c2c(C#N)c(N)nn2C(=O)c2ccc(NC(=O)c3ccccn3)cc2)cc1 .
A: False

Q: Dear colleague, could you confirm whether growth of COc1ccc(-c2ccc(=O)oc2-c2cc(OC)c(OC)c(OC)c2)cc1O falls below 70%? Thanks.
A: True

Q: In the record for Oc1c(I)cc(I)cc1CNCCN(Cc1ccccn1)Cc1ccccn1 , is growth less than 70%?
A: True

* * *

test system: SK-OV-3 ovarian; assay: NCI-60 one-dose screen, 48 h (100 = growth as untreated, 0 = no growth, -100 = all killed); settings: 10 µM unless noted
The panel holds about 83,000 compounds, 20% with a hit somewhere; the sample as a whole holds those more often.
Friendly reminder: growth below 60% is YES, at or above is NO.

Q: Is the reported growth for CC(C)C1=NOC(=O)C1=Cc1cn(-c2ccccc2)nc1-c1ccc(F)cc1 strictly below 60%?
A: NO

Q: Bench note: check whether CCN1C(=S)N(c2ccccc2)C2C1NN=c1s/c(=C3\C(=O)N(C(C)C)c4ccccc43)c(=O)n12 (stereo not given) shows growth below 60%
A: NO

Q: growth under 60%? Item: CC1=C([Se]CC(OC(=O)CC[Se]c2ccccc2)C(=O)NC(C)(C)C)C(=O)c2ccccc2C1=O (stereo not given)
A: YES

Q: Does this compound meet the criterion growth < 60%? CNC(=O)c1[nH]cc(-c2ccc(OC)cc2)c1-c1cc(OC)c2c(c1OC)OCO2
A: NO

Q: Please indicate whether the reported growth of COc1ccc(C2=C(Br)C(=O)c3nc(C)ccc3C2=O)cc1 is strictly below 60%.
A: NO

Q: growth strictly < 60% for this compound? CCO/C=N/C1=C(C#N)C(c2ccc(Cl)cc2)c2sc3c(F)cccc3c2O1 (stereo not given)
A: NO

Q: Threshold test, growth < 60%: C=CCN=c1sc2c(n1NC(=O)c1cc3ccc1CCc1ccc(cc1)CC3)C(=O)c1ccccc1C2=O
A: YES

Q: Identify whether the compound COC1=CC(c2ccc[nH]2)=N/C1=C\c1[nH]c(C)c(C)c1CCC(=O)OCc1ccccc1 records growth below 60%.
A: YES

Q: Lab note: growth threshold 60%. Does this compound come in strictly under it? O=C1C(Cl)=C(NCCCCCCNC2=C(Cl)C(=O)c3ccccc3C2=O)C(=O)c2ccccc21
A: NO

* * *

test system: TK-10 renal; test: NCI-60 one-dose screen, 48 h (100 = growth as untreated, 0 = no growth, -100 = all killed); settings: 10 µM unless noted
The panel holds about 83,000 compounds, 20% with a hit somewhere; the sample as a whole holds those more often.
Response field class: enum, chosen by comparing growth against low-valued: < 50%; mid-valued: ≥ 50% and < 90%; high-valued: ≥ 90%

Q: Into which category would you place N=C(N)c1ccc(-c2ccc(-c3ccccc3)o2)cc1 ?
A: low-valued

Q: Kindly state the category for this molecule: Oc1ccc(Cl)cc1/C=N\NC(=S)N/N=C/c1cc(Cl)ccc1O
A: low-valued

Q: Just checking, what class would you give CC(C)C1=NOC(=O)C1=Cc1cn(-c2ccccc2)nc1-c1ccc(F)cc1 here?
A: mid-valued

Q: Consider Ic1ccc(OCCCCn2ccnc2)cc1 . To which growth class does it belong?
A: low-valued

Q: Exam item: assign COc1ccc(Nc2nc(-c3cc(O)c(C)c(C)c3O)cs2)cc1 to the correct category.
A: high-valued

Q: Assign a bin to CC1CCc2c(C(=O)Nc3ncc(Cc4cccc([N+](=O)[O-])c4)s3)csc2C1 (stereo unspecified)
A: low-valued

Q: Each molecule maps to one class by growth. Which class for COc1ccc(C2=C(Br)C(=O)c3nc(C)ccc3C2=O)cc1 ?
A: mid-valued

Q: Which category fits this record: COc1ccc2c(c1)CC[C@H](O)/C2=C/c1cc(OC)c(OC)c(OC)c1
A: mid-valued

Q: Lab note: which band did Cc1[nH]c(C(=O)Nc2ccc(C(=O)N3CCN(c4cc5c(cc4F)c(=O)c(C(=O)O)cn5C4CC4)CC3)cc2OC(C)C)c(Cl)c1Cl land in?
A: mid-valued

Q: GET /class?item= CCOC(=O)c1nn(-c2ccc(S(N)(=O)=O)cc2)c2nc(C)cc(=O)n12
A: high-valued

Q: The entry to classify is Nc1nc2ccccc2c2c1S(=O)(=O)c1ccc(Cl)cc1C2=O ; which class holds it?
A: low-valued

Q: Tag the class for O=C1c2c(c3c4ccccc4[nH]c3c3ccc4ccccc4c23)C(=O)N1CCN1CCNCC1
A: high-valued

Q: For this molecule, which bin applies? Cc1nc2sc(C(=O)Nc3ccc(Br)cc3)c(N)c2cc1C(O)c1ccccc1 (stereo unspecified)
A: mid-valued

Q: Classify this molecule: CCN(C)S(=O)(=O)Nc1cccc(Nc2ncnc3cc(NC(=O)CCl)ccc23)c1Cl
A: low-valued

Q: Hello team, could you let me know which band the following molecule falls into: CCC(C)N(CCNc1cc(OC)cc2cccnc12)CC(C)C (stereo unspecified)
A: high-valued

Q: Band for CNC(=O)c1[nH]cc(-c2ccc(OC)cc2)c1-c1cc(OC)c2c(c1OC)OCO2 ?
A: high-valued

Q: Form field 'band' for COc1cc(-c2nc3sccn3c2-c2ccnc(NCCNS(=O)(=O)c3ccccc3)n2)ccc1F
A: mid-valued

Q: Input CCOC(=O)C1=C(C)NC(=O)NC1c1c(Cl)n(CCCl)c2ccccc12 (stereo unspecified) ; output its category
A: low-valued

Q: Tag the class for COc1c(B(O)O)cccc1-c1cc(C)c2c(ccc3[nH]ncc32)n1
A: low-valued

Q: Class (by measured growth) for O=C(NCCNc1nccc(Nc2ccc(S(=O)(=O)Nc3ccccn3)cc2)n1)c1cccc([N+](=O)[O-])c1
A: high-valued

* * *

system: SF-539 CNS; experiment: NCI-60 one-dose screen, 48 h (100 = growth as untreated, 0 = no growth, -100 = all killed); settings: 10 µM unless noted
This is part of a sample that, as a whole, favours compounds with a hit. Of some 83,000 tested, about 20% had one in any assay.
Decision: growth beneath 90% gives criterion met; growth meeting or exceeding 90% gives criterion not met.

Q: Input O=C(/C=C/c1ccccc1)Nc1ncc(Cc2ccccc2Cl)s1 ; condition: growth strictly below 90%. Does it hold?
A: criterion met

Q: Could you please tell me whether growth recorded for COc1ccc(C2=C(Br)C(=O)c3nc(C)ccc3C2=O)cc1 is less than 90%?
A: criterion not met

Q: # check: growth < 90% for NC(=O)C(=O)c1ccccc1NC=O
A: criterion not met

Q: Consider CC(=O)/C(=C\c1c(-c2ccccc2)[nH]c2ccccc12)S(C)(=O)=O . Does its growth lie strictly below 90%?
A: criterion met

Q: Please determine if CCCCC1=C(P(=O)(O)O)N[C@H](C(=O)O)CS1 is below 90% in terms of growth.
A: criterion not met

Q: Find out if reported growth for CCOC(=O)c1cc(C)n(-c2ccc(C(=O)O)cc2)c1C is less than 90%
A: criterion not met

Q: growth under 90%? Item: CCCCCCCC[C@@H]1N[C@@H](C(=O)OC)Cc2c1[nH]c1ccccc21
A: criterion not met

Q: Lab note: confirm whether the reported growth for this compound is below 90%, equality not counting. compound: Cn1c(I)c(C#CCO[Si](C)(C)C(C)(C)C)c(=O)[nH]c1=O
A: criterion not met

Q: Dear colleague, could you confirm whether growth of COc1ccc(NC2=C(I)C(=O)c3ncccc3C2=O)cc1 falls below 90%? Thanks.
A: criterion met

Q: Field: below-cutoff. Rule: recorded growth strictly less than 90%. Subject: CC(C)=CC(=O)OCC(=O)O[C@@H]1C[C@]2(C(C)C)O[C@@]1(C)[C@@H]1CC[C@@H](C)[C@H]1[C@@H]2OC(=O)/C=C/c1ccccc1
A: criterion not met
